experiment: Components of the Cytosolic LPS Sensing Pathway: Gene Identification via Genome-wide siRNA Screen; details: RAW264.7 macrophages, IL-1a HTRF, actives lie on both sides, screened at 100 nM (by protocol), cells primed 5 h with Pam3CSK4 first;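 note: robust z of the log signal after scaling to non-targeting control siRNA wells of the plate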
About 3,700 (7%) of roughly 53,000 sequences were called active. The entries come from a sample that favours actives as a whole.
endpoint.name: z-score

Please review the entries below; each comes with its answer.
1) GGAUGAGGAGGAAAAGCUGTT against Nop2
-1.86 (inactive)
2) CCAAGCCUCCAAUGGUCAGTT against Stat6
-0.623 (inactive)
3) GGACUAUCCAGGAAUCGUGTT against Ergic3
0.713 (inactive)
4) GGAUUCGAGUGGUAACAAGTT against Nmral1
0.617 (inactive)
5) GGCAUCAAGUGACUUAUAATT against Zfp772
2.47 (active)
6) CGAAUUUUGGAGAUGUAUGTT against Ddias
0.376 (inactive)
7) CCCAGCAGAAUAACUGCCATT against Pantr1
2.55 (active)
8) GGAGAUAAUCCUUGUCACGTT against Whamm
0.592 (inactive)
9) GCUCCUACAGAGAAUAAGATT against Eny2
-1.7 (inactive)
10) GCUUUAAGUACUUUAACGCTT against Ncr1
1.04 (inactive)

Query: Please report the recorded z-score for GGAGGAAUUUCAAAUACUATT against A530032D15Rik .
Reply: 0.853 (inactive)

Query: Then this sequence: CCCUUACUUAGUCUCCACUTT against Olig1
Reply: -0.025 (inactive)

* * *

test: Components of the Cytosolic LPS Sensing Pathway: Gene Identification via Genome-wide siRNA Screen; conditions: RAW264.7 macrophages, IL-1a HTRF, actives lie on both sides, screened at 100 nM (by protocol), cells primed 5 h with Pam3CSK4 first;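 note: robust z of the log signal after scaling to non-targeting control siRNA wells of the plate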
Screen size: about 53,000 sequences; about 3,700 (7%) were called active. The entries come from a sample that favours actives as a whole.
Threshold check on z-score: at or above -0.3 gives criterion met, strictly below gives criterion not met.

Please review the following examples before continuing.
1) GGAUGGUUUUCAUUUGCUUTT against Cd300ld
criterion not met
2) GGACAAGUCAAUUUGUUGGTT against Zfp36l1
criterion met
3) GGCCAGGAAAUAUGAAAUATT against Phtf1
criterion not met
4) GCUAACAAGCUAGCAUUUATT against Ltv1
criterion not met
5) CCGAAUUGAAAUCACAAGCTT against Nup43
criterion not met
6) GCUUAUGUUUCUGCCACUCTT against Olfr1136
criterion met
7) GGAGAAAGCUGCUCAUGAATT against Caml
criterion not met
8) GGUCGAAAGAAUAAUUUGUTT against Cct6a
criterion not met

Query: Textbook exercise: given the entry GCAGAUAGAAGACUGGAAUTT against 1700024G13Rik , state whether its z-score is greater than or equal to -0.3.
Reply: criterion met

Query: Also GGUGACCAGCAAGUCAUGCTT against Chrdl1 ?
Reply: criterion not met

Query: Proceed to GGGUGUACAGAGGAUCCGATT against Atp2a3
Reply: criterion met

Query: What about GGAGGGACACAGAGAUUACTT against Auh ?
Reply: criterion met

Query: Also GGGAUCCAUCCUUAUUGUUTT against Ybx2 , if possible.
Reply: criterion met

Query: What would you report for GGAAAUGGUAAUUUUCAGUTT against Slc25a36 ?
Reply: criterion met

Query: Please give the result for GGAAUAUGACUACAUGAAATT against Calu too.
Reply: criterion met

Query: How about this sequence: GGACAUUAACGAGCUGAACTT against Ube2m
Reply: criterion met

Query: And for GGACUCCCUGGAUUUCAGATT against Rapgef3 ?
Reply: criterion not met

Query: Okay, and GGAACGUGAAUCUACAGCATT against Tex43 ?
Reply: criterion not met

Query: Now consider CGAUGGUGAUUAUCUAAAATT against Tm4sf4 .
Reply: criterion met

Query: And then GGCUCAAGUAUGAGAAUGATT against Krt15 , what is it?
Reply: criterion not met

Query: Note, next up: CGACAACACAGUUAUUAUUTT against Pld1
Reply: criterion met

Query: Same for GGAUUCAUGAAAUAAGUCATT against Zfp426
Reply: criterion not met

Query: Next sequence up: AGCUGCUCUGAGUUAGAAATT against Scd2
Reply: criterion met

Query: Repeat with GGAGUCUCCCAAAUGAAGATT against Son
Reply: criterion not met

Query: Try GGCCUUGAAAUCGUUUUUUTT against Tceal8 next.
Reply: criterion met

Query: Then GCCACAUCCUAUGUGAUGATT against Olfr1349 ?
Reply: criterion not met

Query: // same read-out, input: GGAUACCAUCAUUGAUGUCTT against Dmap1
Reply: criterion not met

Query: Then GGUCAAUAUCCUCGGACAUTT against Hsd17b13 ?
Reply: criterion not met

Query: Continue with GGCAUGAGCUAUCAGGACUTT against Efcab6
Reply: criterion met
